STUDY SYSTEM: T1, Csm2;Psy3;Shu1;Shu2 (Saccharomyces cerevisiae?;Saccharomyces …, UniProt P40465;Q12318;P38751;P38957 1-213;1-242;1-150;1-223, |||)
T1 sequence 1: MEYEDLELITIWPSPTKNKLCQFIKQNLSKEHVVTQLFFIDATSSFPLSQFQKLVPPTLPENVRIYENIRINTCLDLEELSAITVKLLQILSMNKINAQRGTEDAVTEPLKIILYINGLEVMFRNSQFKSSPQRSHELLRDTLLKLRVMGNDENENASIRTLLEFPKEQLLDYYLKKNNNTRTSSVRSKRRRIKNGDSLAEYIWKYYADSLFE
T1 sequence 2: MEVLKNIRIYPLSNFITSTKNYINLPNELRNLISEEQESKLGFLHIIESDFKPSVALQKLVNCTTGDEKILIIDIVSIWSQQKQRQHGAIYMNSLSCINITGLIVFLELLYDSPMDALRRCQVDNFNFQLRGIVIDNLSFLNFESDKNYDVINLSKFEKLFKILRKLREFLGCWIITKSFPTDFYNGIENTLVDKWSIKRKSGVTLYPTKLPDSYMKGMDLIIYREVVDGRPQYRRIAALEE
T1 sequence 3: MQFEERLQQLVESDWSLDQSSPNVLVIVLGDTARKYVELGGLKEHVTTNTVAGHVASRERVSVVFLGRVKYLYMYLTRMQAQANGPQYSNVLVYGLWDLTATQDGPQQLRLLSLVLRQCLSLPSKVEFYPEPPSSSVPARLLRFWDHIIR
T1 sequence 4: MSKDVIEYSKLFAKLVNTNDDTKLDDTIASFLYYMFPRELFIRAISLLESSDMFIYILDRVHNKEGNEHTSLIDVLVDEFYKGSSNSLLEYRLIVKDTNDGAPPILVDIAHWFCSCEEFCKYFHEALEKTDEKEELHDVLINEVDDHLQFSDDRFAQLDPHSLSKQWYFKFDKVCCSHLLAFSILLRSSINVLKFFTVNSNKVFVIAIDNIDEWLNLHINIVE
PROTOCOL DESCRIPTION: fluorescence polarization
# label = 1 if Kd < 4 µM else 0

1) ACTGCCCTTACAGCACAGCGGTTTTTTTTTT (ssDNA) [ss31]: 1
2) Fork (20nt) (dsDNA) DNA 1: TTTTTTTTTTTTTTTTTTTTCTTGACAAGCTTGCGCACT DNA 2: AGTGCGCAAGCTTGTCAAGGCACTTTTTTTTTTTTTTTT: 1
3) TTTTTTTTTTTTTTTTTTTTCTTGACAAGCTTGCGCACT (ssDNA) [ss39]: 1
4) ss60 (ssDNA) DNA: TTTTTTTTTTTTTTTTTTTTTTTTTTTTTTCTTGACAAGCTTGCGCACTTAGGCCTCTAG: 1
5) 3'-overhang (5nt) (dsDNA) DNA 1: ACTGCCCTTACAGCACAGCGGTTTTT DNA 2: CCGCTGTGCTGTAAGGGCAGT: 0
6) 3'-overhang (10nt) (dsDNA) DNA 1: ACTGCCCTTACAGCACAGCGGTTTTTTTTTT DNA 2: CCGCTGTGCTGTAAGGGCAGT: 0
7) ACTTACAGCACAGCGGTTTTT (ssDNA) [ss21]: 1
8) ds21 (dsDNA) DNA 1: ACTTACAGCACAGCGGTTTTT DNA 2: AAAAACCGCTGTGCTGTAAGT: 0
9) Fork (10nt) (dsDNA) DNA 1: ACTGCCCTTACAGCACAGCGGTTTTTTTTTT DNA 2: TTTTTTTTTTCCGCTGTGCTGTAAGGGCAGT: 0
10) 3'-overhang (20nt) (dsDNA) DNA 1: CTTGACAAGCTTGCGCACT DNA 2: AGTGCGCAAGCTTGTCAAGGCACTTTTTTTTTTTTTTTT: 1
11) ACTGCCCTTACAGCACAGCGGTTTTT (ssDNA) [ss26]: 1
12) 5'-overhang (20nt) (dsDNA) DNA 1: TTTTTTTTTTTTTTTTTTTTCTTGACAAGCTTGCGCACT DNA 2: AGTGCGCAAGCTTGTCAAG: 1
13) ds26 (dsDNA) DNA 1: ACTGCCCTTACAGCACAGCGGTTTTT DNA 2: AAAAACCGCTGTGCTGTAAGGGCAGT: 0
